melting point overview
measure.name: melting point

>  <compound>
COc1cc2[nH]c(=O)n(CCCS)c(=O)c2cc1OC

>  <measure.name>
melting point

>  <meas.value>
236 °C

$$$$
>  <compound>
COc1ccc(C(=O)Nc2ccc(F)cc2)cc1NC(=S)Nc1cc(Cl)cc(Cl)c1

>  <measure.name>
melting point

>  <meas.value>
175 to 178 °C

$$$$
>  <compound>
Cn1c(CCNS(C)(=O)=O)nnc1NCCCOc1cccc(CN2CCCCC2)c1

>  <measure.name>
melting point

>  <meas.value>
105 to 106 °C

$$$$
>  <compound>
CNS(=O)(=O)OCC(COc1ccccc1OC)OS(N)(=O)=O (stereo unspecified)

>  <measure.name>
melting point

>  <meas.value>
110 to 113 °C

$$$$
>  <compound>
CC(C)(C)c1cc(C(c2ccccc2)N2CCCCC2)c(O)c(C(C)(C)C)c1 (stereo unspecified)

>  <measure.name>
melting point

>  <meas.value>
140 to 141 °C

$$$$
>  <compound>
CCOC(=O)c1ccc(NC2(C#N)CCCCC2)cc1

>  <measure.name>
melting point

>  <meas.value>
101 to 102 °C

$$$$
>  <compound>
COc1ccc(C=CC(=O)C=Cc2ccccc2)cc1

>  <measure.name>
melting point

>  <meas.value>
85 to 89 °C

$$$$
>  <compound>
COc1cc(NC(=O)OC(C)(C)C)c(N)cc1-c1ccccc1F

>  <measure.name>
melting point

>  <meas.value>
161 °C

$$$$
>  <compound>
CCOC(=O)c1c(CC(=O)O)n(-c2ccc(OC(F)(F)F)cc2)c2ccc(Oc3ncccc3C(N)=O)cc12

>  <measure.name>
melting point

>  <meas.value>
128 to 130 °C

$$$$
>  <compound>
CN(Cc1ccc(-c2ccc(O)c(Br)c2)cc1)C(=O)c1cn(C)c2ccccc12

>  <measure.name>
melting point

>  <meas.value>
237 to 239 °C

$$$$
>  <compound>
CCOC(=O)C=Cc1ccc(CCc2nc(-c3ccccc3)c(C)s2)cc1

>  <measure.name>
melting point

>  <meas.value>
69 to 70 °C

$$$$
>  <compound>
O=C(Nc1sc2c(c1S(=O)(=O)O)CCCC2)C1CC1

>  <measure.name>
melting point

>  <meas.value>
225 to 230 °C

$$$$
>  <compound>
Cc1cccc(N2CCN([C@@H](Cc3ccc(OCCc4nc(-c5ccccc5)oc4C)cc3)C(=O)O)CC2)c1

>  <measure.name>
melting point

>  <meas.value>
205 to 207 °C

$$$$
>  <compound>
CCCc1c(OCCCS(=O)(=O)c2ccc(C(=O)NCC(=O)OCC)cc2)ccc(C(C)=O)c1O

>  <measure.name>
melting point

>  <meas.value>
138 to 140 °C

$$$$
>  <compound>
C#Cc1ccc(C=O)cc1

>  <measure.name>
melting point

>  <meas.value>
122 to 123 °C

$$$$
>  <compound>
c1ccc(-c2nc(SCCOCCSc3nc(-c4ccccc4)c(-c4ccccc4)[nH]3)[nH]c2-c2ccccc2)cc1

>  <measure.name>
melting point

>  <meas.value>
232 to 234 °C

$$$$

###

>  <compound>
COc1nc2cc([N+](=O)[O-])c(C)c(C(=O)N(C)CC(=O)OC(C)(C)C)c2nc1OC

>  <melting point>
102 to 105 °C

$$$$
>  <compound>
CCN(CC)c1ccc(C(=O)OC)nc1

>  <melting point>
52 to 53.5 °C

$$$$
>  <compound>
CNC(=O)Cc1c(C)n(-c2ccnc3cc(Cl)ccc23)c2ccc(OC)cc12

>  <melting point>
168 to 169 °C

$$$$
>  <compound>
Cc1cc(-c2cc(CO)c(=O)n(Cc3ccccc3Cl)n2)ccc1F

>  <melting point>
149 to 150 °C

$$$$
>  <compound>
O=C(OCc1ccncc1)c1ccc2[nH]c(=O)n(Cc3ccc4c(c3)OCO4)c(=O)c2c1

>  <melting point>
204 °C

$$$$
>  <compound>
O=C(NCC(=O)c1ccco1)c1ccccc1

>  <melting point>
132 to 133 °C

$$$$
>  <compound>
CN(C)c1ccc2c(c1)C(=O)CC(c1ccc(O)cc1)=N2

>  <melting point>
321 to 323 °C

$$$$
>  <compound>
CCC(Cc1c(I)cc(I)c(NC(=O)CNCCNCCN)c1I)C(=O)O (centres undefined)

>  <melting point>
185 °C

$$$$
>  <compound>
O=C(Nc1ccc(-n2nc(C(F)(F)F)cc2C(F)(F)F)nc1)c1cc(F)c(F)cc1Cl

>  <melting point>
113 to 116 °C

$$$$
>  <compound>
COc1n[nH]c(=O)n1O

>  <melting point>
211 °C

$$$$
>  <compound>
O=C(O)CC(NS(=O)(=O)c1ccc2ccccc2c1)c1ccccc1 (centres undefined)

>  <melting point>
123 to 126 °C

$$$$
>  <compound>
CCCCNc1nc2cnnc(Cl)c2cc1C(=O)OCC

>  <melting point>
127 °C

$$$$
>  <compound>
COc1cc2[nH]cc(-c3cc4cc(F)cnc4n3S(=O)(=O)c3ccc(C)cc3)c2cc1OC

>  <melting point>
218 °C

$$$$
>  <compound>
CCOC(=O)C1C=Nc2c(ccc3ncccc23)N1O (centres undefined)

>  <melting point>
223 to 225 °C

$$$$

###

melting point overview

>  <compound>
COc1ccc(C2=NN(c3ccc(C(=O)O)cc3)C(=O)C(C)(C)C2)cc1OC

>  <melting point>
196 to 198 °C

$$$$
>  <compound>
CCOC(=O)C1=C(C)NC(C)=C(C(=O)OC)C1c1ccccc1/C=C/C(=O)OC(C)(C)C (configuration not stated)

>  <melting point>
165 to 167 °C

$$$$
>  <compound>
COc1cc(Br)ccc1C(C)CC(=O)C(=O)Nc1ccc2c(c1)COC2=O (configuration not stated)

>  <melting point>
136 to 140 °C

$$$$
>  <compound>
CCCc1c(C#N)c2ccc(C(=O)OC)cc2n1Cc1ccccc1Cl

>  <melting point>
132 to 133 °C

$$$$
>  <compound>
CC(C(=O)Nc1ccc(-n2nc(C(F)(F)F)cc2C(F)(F)F)cc1)c1ccc(C(=O)c2cccs2)cc1 (configuration not stated)

>  <melting point>
< 80 °C

$$$$
>  <compound>
Cc1[nH]c(=O)[nH]c1C(=O)c1ccc(F)cc1

>  <melting point>
289 to 292 °C

$$$$
>  <compound>
Nc1c(-c2ccccc2)cc(-c2ccccc2)c2cccnc12

>  <melting point>
100 to 102 °C

$$$$

###

melting point overview
measure.name: melting point

>  <molecule>
CCOC(=O)C(Cc1cc2cccnc2n(-c2cccc([N+](=O)[O-])c2)c1=O)C(=O)c1ccncc1 (stereo not drawn)

>  <meas.value>
72 to 73 °C

$$$$
>  <molecule>
CS(=O)(=O)c1ccc(-c2sc(COc3cc(Cl)cc(Cl)c3)nc2-c2ccc(F)cc2)cc1

>  <meas.value>
171 to 173 °C

$$$$
>  <molecule>
COC(=O)C=C1CCC(c2ccc(O)cc2)CC1 (stereo not drawn)

>  <meas.value>
151 to 152 °C

$$$$
>  <molecule>
CC(=O)Nc1cccc2c1C(=O)OC2=O

>  <meas.value>
180 to 183 °C

$$$$
>  <molecule>
Cc1nc(-c2ccc(C(=O)N3Cc4cccnc4Nc4ccccc43)c(Cl)c2)n[nH]1

>  <meas.value>
196 to 198 °C

$$$$
>  <molecule>
Clc1ccc2c(c1)CCC(c1ccccc1)S2 (stereo not drawn)

>  <meas.value>
91 to 93 °C

$$$$
>  <molecule>
CCOC(=O)c1cn(C2CC2)c2c(F)c(F)c(F)c(C)c2c1=O

>  <meas.value>
176 to 177 °C

$$$$
>  <molecule>
COC(=O)c1ccc(OCc2ccc(Cl)cc2)cc1O

>  <meas.value>
119 to 121 °C

$$$$
>  <molecule>
CCCCNC(=O)c1ccc(-c2ccc3nnn(Cc4ccc5ncccc5c4)c3n2)cc1F

>  <meas.value>
100 to 102 °C

$$$$
>  <molecule>
Cc1cc(C(=O)NCCc2ccc(CCC(=O)O)cc2)n[nH]1

>  <meas.value>
202 to 205 °C

$$$$
>  <molecule>
COC(=O)c1ccc(CCN(C)c2cn([C@H]3CCc4c(F)cc(F)cc4C3)c(=S)[nH]2)cc1

>  <meas.value>
159 to 160 °C

$$$$
>  <molecule>
COc1ccc(NC(=O)c2ccc(OC)c(N)c2)cc1

>  <meas.value>
164 to 167 °C

$$$$
>  <molecule>
O=S(=O)(c1ccc(Cl)cc1)N1CCCC1c1ccc(F)c(Cl)c1 (racemic)

>  <meas.value>
119 °C

$$$$
>  <molecule>
COc1ccnc(CSc2nc3cc4c(cc3[nH]2)C(C)(C)C(=O)C4(C)C)c1C

>  <meas.value>
218 to 220 °C

$$$$
>  <molecule>
CC(=O)SCC(CC(C)C)C(=O)NC(C)C(=O)O (stereo not drawn)

>  <meas.value>
157 to 167 °C

$$$$
>  <molecule>
C#CCOc1ccccc1-n1cnc2cc(Nc3nnc(C)c4ccccc34)ccc21

>  <meas.value>
88 to 90 °C

$$$$
>  <molecule>
COc1cc(C2C3=C(COC3=O)N(c3cc(OC)c(OC)c(OC)c3)c3cc4c(cc32)OCO4)cc(OC)c1OC (stereo not drawn)

>  <meas.value>
> 260 °C

$$$$
>  <molecule>
CN(C)C(=O)C(CCO)C1(C)CCCc2c1[nH]c1ccccc21 (stereo not drawn)

>  <meas.value>
145 to 146 °C

$$$$
